test: Clearance in Sprague-Dawley rat at 20 mg/kg, po and 5 mg/kg, iv; conditions: in vivo
measure: clearance (L/h/kg)
Quick note: give the figure in L/h/kg, leave out the unit.

Ask: Entry under review: "COCCCc1cc(CN(C(=O)[C@H]2CNCC[C@@H]2c2ccn(C)c(=O)c2)C2CC2)cc(Br)c1C" . Reported clearance?
Result: 4.02

* * *

assay: Oral bioavailability in Beagle dog at 3 mg/kg; type: ADME, organism-based, Canis lupus familiaris; details: in vivo
measure: bioavailability (%)
Quick note: give the figure in %, leave out the unit.

Ask: Entry under review: "COCCCc1cc(CN(C(=O)[C@H]2CNCC[C@@H]2c2ccn(C)c(=O)c2)C2CC2)cc(Br)c1C" . Reported bioavailability?
Result: 36
